- system: T1, wild-type human PTH/PTHrP receptor (hP1R-WT) (human, UniProt Q03431 27-593)
- T1 sequence (looked up): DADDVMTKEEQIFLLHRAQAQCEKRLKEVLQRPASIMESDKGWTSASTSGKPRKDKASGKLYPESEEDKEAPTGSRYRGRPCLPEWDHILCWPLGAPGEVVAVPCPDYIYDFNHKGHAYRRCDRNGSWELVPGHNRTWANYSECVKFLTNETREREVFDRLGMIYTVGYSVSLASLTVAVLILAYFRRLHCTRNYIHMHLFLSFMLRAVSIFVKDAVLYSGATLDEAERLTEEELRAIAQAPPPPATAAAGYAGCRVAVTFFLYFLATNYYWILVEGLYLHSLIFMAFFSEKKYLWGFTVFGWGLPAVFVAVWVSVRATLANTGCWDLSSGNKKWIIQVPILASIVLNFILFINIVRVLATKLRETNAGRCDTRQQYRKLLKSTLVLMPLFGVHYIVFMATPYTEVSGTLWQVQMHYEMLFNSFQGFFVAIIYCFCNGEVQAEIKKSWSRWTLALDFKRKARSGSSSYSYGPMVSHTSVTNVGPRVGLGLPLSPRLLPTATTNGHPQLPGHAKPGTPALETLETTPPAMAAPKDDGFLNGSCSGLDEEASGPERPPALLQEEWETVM
- experiment-notes: cell-based or functional assay
Square brackets hold non-standard residues; d marks the D form. Ends that are not written are not given here. hArg = N=C(N)NCCCC[C@H](N)C(=O)O; Aib = CC(C)(N)C(=O)O
value-type: cAMP EMax(obs.)

- binder: "AVAEIQLMHQ[hArg]AK[Aib]-NH2 (N-terminus assumed; SMILES CC[C@H](C)[C@H](NC(=O)[C@H](CCC(=O)O)NC(=O)[C@H](C)NC(=O)[C@@H](NC(=O)[C@H](C)N)C(C)C)C(=O)N[C@@H](CCC(N)=O)C(=O)N[C@@H](CC(C)C)C(=O)N[C@@H](CCSC)C(=O)N[C@@H](Cc1c[nH]cn1)C(=O)N[C@@H](CCC(N)=O)C(=O)N[C@@H](CCCCNC(=N)N)C(=O)N[C@@H](C)C(=O)N[C@@H](CCCCN)C(=O)NC(C)(C)C(N)=O, Aib scan of [M]PTH(1-14); Aib replaces the Trp^14 of [M]; also called 635 Aib-14) [[Aib^14,M]PTH(1-14)]"
  reported-value: "273 pmole/well"
